test: self-splicing fitness, log relative to wild type (ln ratio); higher = more splicing; Tetrahymena group I intron in knt gene, E. coli kanamycin selection, DiMSum; sequences stand for … in CUCUCU…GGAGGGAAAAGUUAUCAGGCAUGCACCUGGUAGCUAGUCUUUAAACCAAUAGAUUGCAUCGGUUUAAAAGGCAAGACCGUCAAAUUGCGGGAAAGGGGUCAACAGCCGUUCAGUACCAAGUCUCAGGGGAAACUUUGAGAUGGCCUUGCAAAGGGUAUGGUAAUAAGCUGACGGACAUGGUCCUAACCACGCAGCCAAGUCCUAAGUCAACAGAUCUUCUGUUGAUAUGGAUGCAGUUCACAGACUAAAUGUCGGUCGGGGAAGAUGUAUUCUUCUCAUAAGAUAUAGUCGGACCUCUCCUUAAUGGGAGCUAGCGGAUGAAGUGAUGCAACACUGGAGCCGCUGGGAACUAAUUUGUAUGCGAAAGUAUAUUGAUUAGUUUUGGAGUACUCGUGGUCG; conditions: 30 °C;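 further: selection with 25 µg/mL kanamycin versus none on LB agar overnight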
Each record gets a class by self-splicing fitness (ln): lower (below -3), middle (-3 to below -2), upper (-2 or more)

Construct Sequence	Cat
CCCCAGCAAUAUUACGAGCC	lower
UAUCAGCAAUAUUACGGCGA	upper
AUACAGCAAUAUUACGGCAC	upper
CACUAGCAAUAUUACGUCCU	middle
CAUAAGCAAUAUUACGCUUC	middle
UCCCAGCAAUAUUACGUGGC	lower
GGGGAGCAAUAUUACGAUCG	upper
AUGAAGCAAUAUUACGCCCC	upper
UACAAGCAAUAUUACGCUUC	lower
GGUAAGCAAUAUUACGAUUU	upper
CCCCAGCAAUAUUACGGACU	lower
UGUGAGCAAUAUUACGUCUU	middle
CGUAAGCAAUAUUACGUCGU	lower
CCUUAGCAAUAUUACGUUUC	upper
UAAUAGCAAUAUUACGCGAC	lower

====

test: self-splicing fitness, log relative to wild type (ln ratio); higher = more splicing; Tetrahymena group I intron in knt gene, E. coli kanamycin selection, DiMSum; sequences stand for … in CUCUCU…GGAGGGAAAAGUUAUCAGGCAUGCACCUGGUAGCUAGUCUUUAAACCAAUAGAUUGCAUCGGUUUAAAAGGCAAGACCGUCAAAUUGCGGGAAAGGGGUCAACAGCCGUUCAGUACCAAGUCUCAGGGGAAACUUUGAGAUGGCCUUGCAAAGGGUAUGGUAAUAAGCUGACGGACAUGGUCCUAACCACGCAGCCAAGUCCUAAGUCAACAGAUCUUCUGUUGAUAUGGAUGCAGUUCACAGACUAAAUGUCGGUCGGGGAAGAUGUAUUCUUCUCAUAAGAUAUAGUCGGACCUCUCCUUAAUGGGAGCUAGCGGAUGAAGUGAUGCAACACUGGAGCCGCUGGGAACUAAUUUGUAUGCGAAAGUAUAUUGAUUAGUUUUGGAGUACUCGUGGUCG; conditions: 30 °C
Please use Satisfied whenever self-splicing fitness (ln) is not below -2, and Not satisfied whenever it is.

Construct Sequence	Cat
UUUUAGCAAUAUUACGUUGU	Not satisfied
GCCAAGCAAUAUUACGUCCC	Satisfied
AGCAAGCAAUAUUACGCUUG	Not satisfied
CAUCAGCAAUAUUACGUUUU	Not satisfied
UUCUAGCAAUAUUACGCGUA	Satisfied
GAAAAGCAAUAUUACGCGUC	Not satisfied
GCCAAGCAAUAUUACGCGCG	Satisfied
CCAAAGCAAUAUUACGACUA	Not satisfied
AGACAGCAAUAUUACGAUAG	Not satisfied
ACUGAGCAAUAUUACGAGGG	Not satisfied
AUGCAGCAAUAUUACGGACA	Satisfied
GAGGAGCAAUAUUACGACAC	Satisfied
UAACAGCAAUAUUACGUCAG	Satisfied
AAGAAGCAAUAUUACGUGUA	Satisfied
